- testSystem: Cholinesterase (Equus caballus)
- methodNotes: Inhibition of horse serum BChE at 100 uM preincubated for 5 mins by Ellman's method
Give measured inhibition for each item. Keep answers brief.
One number for each entry, in %.

- givenSmiles: "CC(C)NC(=O)Oc1cccc(CC(=O)NC2CCN(Cc3ccccc3)CC2)c1"
  valueKind: "inhibition"
  valueUnit: "%"
  measured: 72.2
- givenSmiles: "O=C(Cc1ccc(O)cc1)NC1CCN(Cc2ccccc2)CC1"
  valueKind: "inhibition"
  valueUnit: "%"
  measured: 45.6

[Q] # input molecule: `O=C(Cc1cccc(O)c1)N1CCN(Cc2ccccc2)CC1` ; wanted: its inhibition
[A] 31.5

----------
- testSystem: Cholinesterase (Equus caballus) (UniProt P81908)
- Sequence (P81908 whole entry): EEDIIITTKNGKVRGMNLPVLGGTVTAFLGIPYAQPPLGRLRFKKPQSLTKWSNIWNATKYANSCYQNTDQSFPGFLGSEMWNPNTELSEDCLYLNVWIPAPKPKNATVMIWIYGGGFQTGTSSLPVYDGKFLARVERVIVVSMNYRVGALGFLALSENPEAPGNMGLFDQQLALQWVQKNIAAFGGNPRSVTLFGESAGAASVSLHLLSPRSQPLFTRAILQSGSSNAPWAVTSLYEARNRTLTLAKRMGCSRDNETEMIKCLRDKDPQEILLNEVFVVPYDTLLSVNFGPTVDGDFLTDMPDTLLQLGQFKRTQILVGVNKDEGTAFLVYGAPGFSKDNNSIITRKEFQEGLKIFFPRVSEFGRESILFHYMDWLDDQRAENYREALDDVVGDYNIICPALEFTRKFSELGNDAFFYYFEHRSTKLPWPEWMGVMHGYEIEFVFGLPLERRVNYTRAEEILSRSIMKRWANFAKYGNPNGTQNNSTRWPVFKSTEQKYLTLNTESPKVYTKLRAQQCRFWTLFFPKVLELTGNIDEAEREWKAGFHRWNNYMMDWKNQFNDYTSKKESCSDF
- methodNotes: Inhibition of horse serum BChE at 100 uM preincubated for 5 mins by Ellman's method
Decide using inhibition: a value greater than or equal to 80% is Fulfilled, a smaller one is Not fulfilled.

Field: example entries. Status: answers known.
- givenSmiles: "O=C(Cc1ccc(O)cc1)N1CCN(Cc2ccccc2)CC1"
  assignedClass: "Not fulfilled"
- givenSmiles: "CC(C)NC(=O)Oc1ccc(CC(=O)NC2CCN(Cc3ccccc3)CC2)cc1"
  assignedClass: "Not fulfilled"
- givenSmiles: "CCCNC(=O)Oc1ccc(CC(=O)N2CCN(Cc3ccccc3)CC2)cc1"
  assignedClass: "Fulfilled"
- givenSmiles: "CCCNC(=O)Oc1ccc(CC(=O)NC2CCN(Cc3ccccc3)CC2)cc1"
  assignedClass: "Fulfilled"
- givenSmiles: "CN(C)C(=O)Oc1ccc(CC(=O)NC2CCN(Cc3ccccc3)CC2)cc1"
  assignedClass: "Fulfilled"

[Q] Is inhibition at least 80%? Consider `CC(C)NC(=O)Oc1ccc(CC(=O)N2CCN(Cc3ccccc3)CC2)cc1`
[A] Not fulfilled

[Q] Say whether `CN(C)C(=O)Oc1ccc(CC(=O)N2CCN(Cc3ccccc3)CC2)cc1` shows inhibition of 80% or more.
[A] Not fulfilled

[Q] Evaluate `CCNC(=O)Oc1cccc(CC(=O)N2CCN(Cc3ccccc3)CC2)c1` : inhibition at minimum 80%?
[A] Not fulfilled

[Q] Assess whether reported inhibition for `CCCCNC(=O)Oc1ccc(CC(=O)N2CCN(Cc3ccccc3)CC2)cc1` sits at 80% or higher.
[A] Fulfilled

----------
- testSystem: Acetylcholinesterase (Electrophorus electricus) (UniProt O42275)
- Sequence (O42275 24-633 limits assumed): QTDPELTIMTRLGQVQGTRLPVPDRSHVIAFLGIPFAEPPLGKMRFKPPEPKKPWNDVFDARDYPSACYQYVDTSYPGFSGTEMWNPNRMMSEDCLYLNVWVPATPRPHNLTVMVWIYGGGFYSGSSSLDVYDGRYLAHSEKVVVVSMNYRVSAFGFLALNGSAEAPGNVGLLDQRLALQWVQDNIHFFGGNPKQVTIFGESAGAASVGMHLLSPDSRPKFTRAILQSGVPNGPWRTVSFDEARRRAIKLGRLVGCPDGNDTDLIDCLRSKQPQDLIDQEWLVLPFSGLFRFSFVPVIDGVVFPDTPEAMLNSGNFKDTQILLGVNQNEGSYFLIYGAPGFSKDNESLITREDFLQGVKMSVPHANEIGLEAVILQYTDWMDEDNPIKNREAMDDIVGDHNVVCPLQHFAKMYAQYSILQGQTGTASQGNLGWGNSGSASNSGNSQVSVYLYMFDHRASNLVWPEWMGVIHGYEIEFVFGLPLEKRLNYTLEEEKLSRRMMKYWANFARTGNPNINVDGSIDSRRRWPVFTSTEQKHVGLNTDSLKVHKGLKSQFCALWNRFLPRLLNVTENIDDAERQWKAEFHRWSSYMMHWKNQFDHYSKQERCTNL
- methodNotes: Inhibition of electric eel AChE at 100 uM preincubated for 5 mins by Ellman's method
Please provide measured inhibition for the entries that follow.

Answered cases to consult:
- givenSmiles: "CCCCNC(=O)Oc1cccc(CC(=O)NC2CCN(Cc3ccccc3)CC2)c1"
  inhibition: "39.9%"
- givenSmiles: "CCCCNC(=O)Oc1ccc(CC(=O)NC2CCN(Cc3ccccc3)CC2)cc1"
  inhibition: "43.7%"
- givenSmiles: "CCNC(=O)Oc1cccc(CC(=O)NC2CCN(Cc3ccccc3)CC2)c1"
  inhibition: "28.5%"
- givenSmiles: "CN(C)C(=O)Oc1ccc(CC(=O)NC2CCN(Cc3ccccc3)CC2)cc1"
  inhibition: "46.2%"
- givenSmiles: "CN(C)C(=O)Oc1cccc(CC(=O)NC2CCN(Cc3ccccc3)CC2)c1"
  inhibition: "50.5%"

[Q] Need inhibition of `O=C(Cc1cccc(O)c1)NC1CCN(Cc2ccccc2)CC1` , thanks.
[A] 38.1%
